Experiment: Lipophilicity, log D of the compound by chromatographic analysis
Format: physicochemical
Friendly reminder: chromatographic logD below 3 is condition met, at or above is condition not met.

>  <compound>
COc1cccc2c1c(NS(=O)(=O)c1ccc(Cl)s1)nn2Cc1cc(CNC(C)=O)ccn1

>  <className>
condition met

$$$$
>  <compound>
CN[C@H](C)C(=O)NCc1cccc(Cn2nc(NS(=O)(=O)c3ccc(Cl)s3)c3c(OC)cccc32)c1

>  <className>
condition not met

$$$$
>  <compound>
COc1cccc2c1c(NS(=O)(=O)c1ccc(Cl)s1)nn2Cc1cccc(CNC(=O)C2CCO2)c1 (stereo unspecified)

>  <className>
condition not met

$$$$
>  <compound>
O=C([C@H]1CCCCN1)N1CCN(c2nc(NCc3ccc(Cl)cc3Cl)c3cccnc3n2)CC1

>  <className>
condition met

$$$$
>  <compound>
COc1cccc2c1c(NS(=O)(=O)c1ccc(Cl)s1)nn2Cc1cccc(CNC(=O)[C@@H]2COCCN2)c1

>  <className>
condition not met

$$$$
>  <compound>
CC(=O)NCc1cccc(Cn2nc(NS(=O)(=O)c3ccc(Cl)s3)c3c(C#N)cccc32)c1

>  <className>
condition met

$$$$
>  <compound>
CC(=O)NCc1cccc(Cn2nc(NS(=O)(=O)c3ccc(Cl)s3)c3ccccc32)c1

>  <className>
condition not met

$$$$
>  <compound>
COc1cc(F)cc2c1c(NS(=O)(=O)c1ccc(Cl)s1)nn2Cc1cccc(CNC(C)=O)c1

>  <className>
condition not met

$$$$
>  <compound>
COc1cc(F)cc2c1c(NS(=O)(=O)c1ccc(Cl)s1)nn2Cc1cccc(CNC(=O)C(C)(C)O)c1

>  <className>
condition not met

$$$$
